pIC50: −log10 of the molar value.
Here we gather pIC50 data for Aldo-keto reductase family 1 member B1 (Bos taurus) reported by several publications.
Mark 1 for reported pIC50 of 6 or greater; mark 0 for anything smaller.

1. CCCCCCOc1cc(O)c2c(=O)cc(-c3ccc(O)c(O)c3)oc2c1
0
2. O=C1S/C(=C\c2ccc(O)cc2)C(=O)N1CC(=O)C(F)(F)F
0
3. O=C(COc1cc(O)c2c(=O)cc(-c3ccc4c(c3)OCCO4)oc2c1)OCCO[N+](=O)[O-]
1

Problem: Decide: pIC50 of "O=c1cc(-c2ccccc2)oc2cc(OCCCCO[N+](=O)[O-])cc(O)c12" >= 6?
Solution: 1

Problem: Determine whether this compound has pIC50 no lower than 6: "O=C(CN1C(=O)S/C(=C\c2ccc(OCc3ccccc3)cc2)C1=O)NO"
Solution: 0

Problem: I'd appreciate it if you could say whether "O=C(O)CN1C(=O)S/C(=C\c2ccc(/C=C/c3ccccc3)cc2)C1=O" has pIC50 at least equal to 6.
Solution: 1

Problem: Dear colleague, could you confirm whether "O=C(O)COc1ccc(/C=C2\SC(=O)N(CC(=O)O)C2=O)cc1" has pIC50 at or above 6?
Solution: 1

Problem: I'd appreciate it if you could say whether "O=c1oc2ccccc2cc1-c1nn(CN2CCOCC2)c(=S)o1" has pIC50 at least equal to 6.
Solution: 1
